Documented NHEJ repair efficiency (log10) across a set of compounds
Test system: CLZ3 (HCA2 human fibroblast dual HR-NHEJ reporter)
Assay Name: NHEJ repair efficiency (GFP+ cells) relative to control (log10 fold); higher = more non-homologous end joining
Run Conditions: 5 µM; doxycycline 0.5 ug/mL
Give your answer as a number; write no unit.

Ask: Would you mind telling me what NHEJ repair efficiency (log10) value was observed for Oc1cc(O)c2c(c1)O[C@H](c1ccc(O)c(O)c1)[C@H](O)C2 [Epicatechin (EC)] ?
Result: -0.238

Further cases:
Ask: Would you mind telling me what NHEJ repair efficiency (log10) value was observed for OCc1ccccc1O[C@@H]1O[C@H](CO)[C@@H](O)[C@H](O)[C@H]1O [Salicoside] ?
Result: -0.0463

Ask: Would you mind telling me what NHEJ repair efficiency (log10) value was observed for Cc1cc(O)cc(O[C@@H]2O[C@H](CO)[C@@H](O)[C@H](O)[C@H]2O)c1 [Orcinol Glucoside] ?
Result: 0.0229

Ask: Would you mind telling me what NHEJ repair efficiency (log10) value was observed for C[C@H](CCC(=O)O)[C@H]1CC[C@H]2[C@@H]3[C@H](O)C[C@@H]4C[C@H](O)CC[C@]4(C)[C@H]3CC[C@]12C ?
Result: -0.124

====

Tested on: CLZ3 (HCA2 human fibroblast dual HR-NHEJ reporter)
Assay Name: HR repair efficiency (tdTomato+ cells) relative to control (log10 fold); higher = more homologous recombination
Run Conditions: 5 µM; doxycycline 0.5 ug/mL
Think of 0.06 as a floor: if HR repair efficiency (log10) stands on it or above, it is label 1; beneath it, label 0.

Ask: Could you verify whether the entry COc1cc(-c2oc3cc(O)cc(O)c3c(=O)c2O[C@@H]2O[C@H](CO)[C@@H](O)[C@H](O)[C@H]2O[C@@H]2O[C@@H](C)[C@H](O)[C@@H](O)[C@H]2O)ccc1O [Isorhamnetin 3-O-Neohesperoside] shows HR repair efficiency (log10) of no less than 0.06?
Result: label 0

Ask: Could you verify whether the entry O=C1c2ccccc2C(=O)c2c(O)c(O)cc(O)c21 shows HR repair efficiency (log10) of no less than 0.06?
Result: label 1

Ask: Could you verify whether the entry O=C(O)[C@H]1O[C@@H](Oc2cc3oc(-c4ccc(O)cc4)cc(=O)c3c(O)c2O)[C@H](O)[C@@H](O)[C@@H]1O shows HR repair efficiency (log10) of no less than 0.06?
Result: label 0

Ask: Could you verify whether the entry Nc1ncnc2c1ncn2[C@@H]1O[C@H](CO)[C@@H](O)[C@H]1O shows HR repair efficiency (log10) of no less than 0.06?
Result: label 0

Ask: Could you verify whether the entry C[C@H]1[C@H](C)CC[C@]2(C(=O)O[C@@H]3O[C@H](CO[C@@H]4O[C@H](CO)[C@@H](O[C@@H]5O[C@@H](C)[C@H](O)[C@@H](O)[C@H]5O)[C@H](O)[C@H]4O)[C@@H](O)[C@H](O)[C@H]3O)CC[C@]3(C)C(=CC[C@@H]4[C@@]5(C)C[C@@H](O)[C@H](O)[C@@](C)(CO)[C@@H]5[C@H](O)C[C@]43C)[C@H]12 [Madecassoside] shows HR repair efficiency (log10) of no less than 0.06?
Result: label 1

Further cases:
Ask: Could you verify whether the entry CCCCCCCCC[C@H](O)CC(=O)CCc1ccc(O)c(OC)c1 shows HR repair efficiency (log10) of no less than 0.06?
Result: label 1

Ask: Could you verify whether the entry CC(=O)C1=C(O)C=C2Oc3c(C(C)=O)c(O)c(C)c(O)c3C2(C)C1=O (stereo in doubt) shows HR repair efficiency (log10) of no less than 0.06?
Result: label 0

Ask: Could you verify whether the entry O=C(O)c1cc(O)c2c(c1)C(C1c3cc(CO)cc(O)c3C(=O)c3c(OC4OC(CO)C(O)C(O)C4O)cccc31)c1cccc(OC3OC(CO)C(O)C(O)C3O)c1C2=O (stereo unspecified) [Sennoside D] shows HR repair efficiency (log10) of no less than 0.06?
Result: label 0

Ask: Could you verify whether the entry O[C@@H]1[C@@H](O)[C@@H](OC/C=C/c2ccccc2)O[C@H](CO[C@@H]2OC[C@H](O)[C@H](O)[C@H]2O)[C@H]1O shows HR repair efficiency (log10) of no less than 0.06?
Result: label 1

Ask: Could you verify whether the entry COC(=O)C1=CO[C@@H](O[C@@H]2O[C@H](CO[C@@H]3O[C@H](CO)[C@@H](O)[C@H](O)[C@H]3O)[C@@H](O)[C@H](O)[C@H]2O)[C@@H]2C(CO)=CC[C@H]12 [Genipin 1-Gentiobioside] shows HR repair efficiency (log10) of no less than 0.06?
Result: label 0

Ask: Could you verify whether the entry COc1ccc(CCC(=O)c2c(O)cc(OC3OC(CO)C(O)C(O)C3OC3OC(C)C(O)C(O)C3O)cc2O)cc1O (stereo unspecified) [Neosperidin Dihydrochalcone] shows HR repair efficiency (log10) of no less than 0.06?
Result: label 0

Ask: Could you verify whether the entry COc1cc(C2Oc3ccc(C4Oc5cc(O)cc(O)c5C(=O)C4O)cc3OC2CO)ccc1O (stereo unspecified) shows HR repair efficiency (log10) of no less than 0.06?
Result: label 0

Ask: Could you verify whether the entry C=C(C)[C@@H]1CC[C@]2(C(=O)O)CC[C@]3(C)[C@H](CC[C@@H]4[C@@]5(C)CC[C@H](O)C(C)(C)[C@@H]5CC[C@]43C)[C@@H]12 shows HR repair efficiency (log10) of no less than 0.06?
Result: label 0

Ask: Could you verify whether the entry C/C=C(/C)C(=O)O[C@H]1c2cc(OC)c(OC)c(OC)c2-c2c(cc3c(c2OC)OCO3)C[C@H](C)[C@]1(C)O shows HR repair efficiency (log10) of no less than 0.06?
Result: label 0

Ask: Could you verify whether the entry Cn1cnc2c1c(=O)[nH]c(=O)n2C shows HR repair efficiency (log10) of no less than 0.06?
Result: label 1

Ask: Could you verify whether the entry CC1(C)C=Cc2c(ccc3c2OC[C@@H](c2ccc(O)cc2O)C3)O1 shows HR repair efficiency (log10) of no less than 0.06?
Result: label 0

Ask: Could you verify whether the entry COc1ccc(C=O)c(O)c1 shows HR repair efficiency (log10) of no less than 0.06?
Result: label 0

Ask: Could you verify whether the entry COc1cc(O)c2c(=O)c(O[C@@H]3O[C@H](CO)[C@@H](O)[C@H](O)[C@H]3O)c(-c3ccc(O[C@@H]4O[C@H](CO)[C@@H](O)[C@H](O)[C@H]4O)cc3)oc2c1 [Complanatoside] shows HR repair efficiency (log10) of no less than 0.06?
Result: label 0

Ask: Could you verify whether the entry COc1ccc(-c2coc3cc(O)cc(O)c3c2=O)cc1 shows HR repair efficiency (log10) of no less than 0.06?
Result: label 0

Ask: Could you verify whether the entry COc1c2ccoc2c(OC[C@@H](O)C(C)(C)O)c2oc(=O)ccc12 shows HR repair efficiency (log10) of no less than 0.06?
Result: label 0

Ask: Could you verify whether the entry C[C@@H]1O[C@@H](O[C@@H]2[C@@H](O)[C@H](OCCc3ccc(O)c(O)c3)O[C@H](COC(=O)/C=C/c3ccc(O)c(O)c3)[C@H]2O)[C@H](O)[C@H](O)[C@H]1O [Isoacteoside] shows HR repair efficiency (log10) of no less than 0.06?
Result: label 0

Ask: Could you verify whether the entry O=C(O)c1ccccc1 shows HR repair efficiency (log10) of no less than 0.06?
Result: label 1

Ask: Could you verify whether the entry COc1ccc(-c2cc(=O)c3c(O)cc(O)cc3o2)cc1 shows HR repair efficiency (log10) of no less than 0.06?
Result: label 1

Ask: Could you verify whether the entry Oc1cc(O)c2c(c1)O[C@H](c1cc(O)c(O)c(O)c1)[C@H](O)C2 [(-)Epigallocatechin] shows HR repair efficiency (log10) of no less than 0.06?
Result: label 0

Ask: Could you verify whether the entry O=c1cc(-c2ccc(O)c(-c3c(O)cc(O)c4c(=O)cc(-c5ccc(O)cc5)oc34)c2)oc2cc(O)cc(O)c12 shows HR repair efficiency (log10) of no less than 0.06?
Result: label 1

====

Tested on: CLZ3 (HCA2 human fibroblast dual HR-NHEJ reporter)
Assay Name: HR repair efficiency (tdTomato+ cells) relative to control (log10 fold); higher = more homologous recombination
Run Conditions: 5 µM; doxycycline 0.5 ug/mL
Experimental Readout: HR repair efficiency (log10)
Give your answer as a number; write no unit.

Ask: Would you mind telling me what HR repair efficiency (log10) value was observed for COc1ccc2ccc(=O)oc2c1CC=C(C)C [Osthole] ?
Result: -0.0645

Ask: Would you mind telling me what HR repair efficiency (log10) value was observed for COc1cc2c(cc1OC)[C@H]1[C@@H](C)c3ccc(OC)c(OC)c3CN1CC2 [Corydaline] ?
Result: -0.191

Ask: Would you mind telling me what HR repair efficiency (log10) value was observed for COc1ccc(/C=C/c2cc(O)cc(O[C@@H]3O[C@H](CO)[C@@H](O)[C@H](O)[C@H]3O)c2)cc1 [Desoxyrhaponticin] ?
Result: 0.245

Ask: Would you mind telling me what HR repair efficiency (log10) value was observed for COc1c(O)cc2oc(-c3ccccc3)cc(=O)c2c1O [Oroxylin A] ?
Result: 0.0534

Ask: Would you mind telling me what HR repair efficiency (log10) value was observed for COc1cc(/C=C/C(=O)CC(=O)/C=C/c2ccc(O)c(OC)c2)ccc1O [Curcumin] ?
Result: -0.113

Ask: Would you mind telling me what HR repair efficiency (log10) value was observed for COc1ccc(/C=C/c2cc(O)cc(O[C@@H]3O[C@H](CO)[C@@H](O)[C@H](O)[C@H]3O)c2)cc1O [Rhapontin] ?
Result: 0.0931

Ask: Would you mind telling me what HR repair efficiency (log10) value was observed for OCc1ccc(O[C@@H]2O[C@H](CO)[C@@H](O)[C@H](O)[C@H]2O)cc1 [Gastrodin] ?
Result: 0.307

meta.source: the supplement of paper PMC7380943
